Values were extracted from the supplement of paper PMC10065799.

# MEASURED TARGET: c-Src SH2;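 also: peptide library displayed on the E. coli surface as eCPX fusions, selected cells deep-sequenced, score is each peptide's frequency after selection divided by its frequency in the input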
# ASSAY OVERVIEW: SH2 binding enrichment of the phosphorylated peptide, bacterial display (enrichment ratio); higher = better substrate or ligand; peptides without Tyr show the background
Quick rule for you: SH2 binding enrichment at 0.6 or higher means class 1, lower means class 0.

Reference set, count: 4
| SEQUENCE DATA | MEASURED TARGET | LABEL VALUE |
| --- | --- | --- |
| QAQMDYRRLQP [MPL_Y591] | c-Src SH2 | class 0 |
| RCKSHYAAFSV [C1QTNF1_Y145] | c-Src SH2 | class 1 |
| SLALFYRKVFH [RBL1_Y792_YF] | c-Src SH2 | class 0 |
| ILGRFYETGSI [PAX2_Y73_YF] | c-Src SH2 | class 1 |

# bool: SH2 binding enrichment of QRIFQYIRSRF [DYRK1B_Y273_Q275R_YF] >= 0.6
class 0

Answer whether SH2 binding enrichment of FPKAHYHWLVL [APTX_Y214_R213H_YF] is greater than or equal to 0.6.
class 1

Is SH2 binding enrichment for ALAAPYVLFPG [CEFIP_Y1332_YF] at or above 0.6?
class 1

Record GDPTEYYITAI [IGSF22_Y501_S503I] ; criterion: SH2 binding enrichment no lower than 0.6. Met?
class 0

Check if SH2 binding enrichment >= 0.6 (inclusive). Item: EHLNRYINDTF [TTLL10_Y446_S448N]
class 1

Has SVMAEYGLYAA [VSX2_Y219_G223A] a recorded SH2 binding enrichment greater than or equal to 0.6?
class 0

Check the entry KIPGRYYETGS [PAX2_Y72_L69P] : does SH2 binding enrichment equal or exceed 0.6?
class 1

Is the recorded value of SH2 binding enrichment equal to or greater than 0.6 for this sequence? DEGVNHFMSKG [FBXO8_Y156_Y156H]
class 0

Determine whether measured SH2 binding enrichment meets or exceeds 0.6 for DAKTIYDFTDT [PDK1_Y136_A134T]
class 0

Decide: is the reported value of SH2 binding enrichment for QDGFSYPSRQM [LDLR_Y847_YF] equal to or greater than 0.6?
class 1

Could you verify whether the entry GGEAIYAAPFA [Abl_opt_1995] shows SH2 binding enrichment of no less than 0.6?
class 0

Kindly determine if SH2 binding enrichment recorded for IVAREYFSKAD [CAMK2B_Y107_E110K_YF] is above or exactly 0.6.
class 0

Entry TVLGEYALPKG [CYP24A1_Y407] : is its SH2 binding enrichment no less than 0.6?
class 0

Is it the case that NLGQQYNSPQE [UMPS_Y432] has SH2 binding enrichment reaching or exceeding 0.6?
class 0

Can VIGRMYDYHVL [RPF2_Y109] be said to have SH2 binding enrichment at or above 0.6?
class 1

Hi team, for PMQLPYDSTWE [PDGFRB_Y589] , is the recorded SH2 binding enrichment at or above 0.6?
class 1

---

# MEASURED TARGET: EPHB1 (UniProt P54762)
# Sequence (P54762 whole entry, looked up): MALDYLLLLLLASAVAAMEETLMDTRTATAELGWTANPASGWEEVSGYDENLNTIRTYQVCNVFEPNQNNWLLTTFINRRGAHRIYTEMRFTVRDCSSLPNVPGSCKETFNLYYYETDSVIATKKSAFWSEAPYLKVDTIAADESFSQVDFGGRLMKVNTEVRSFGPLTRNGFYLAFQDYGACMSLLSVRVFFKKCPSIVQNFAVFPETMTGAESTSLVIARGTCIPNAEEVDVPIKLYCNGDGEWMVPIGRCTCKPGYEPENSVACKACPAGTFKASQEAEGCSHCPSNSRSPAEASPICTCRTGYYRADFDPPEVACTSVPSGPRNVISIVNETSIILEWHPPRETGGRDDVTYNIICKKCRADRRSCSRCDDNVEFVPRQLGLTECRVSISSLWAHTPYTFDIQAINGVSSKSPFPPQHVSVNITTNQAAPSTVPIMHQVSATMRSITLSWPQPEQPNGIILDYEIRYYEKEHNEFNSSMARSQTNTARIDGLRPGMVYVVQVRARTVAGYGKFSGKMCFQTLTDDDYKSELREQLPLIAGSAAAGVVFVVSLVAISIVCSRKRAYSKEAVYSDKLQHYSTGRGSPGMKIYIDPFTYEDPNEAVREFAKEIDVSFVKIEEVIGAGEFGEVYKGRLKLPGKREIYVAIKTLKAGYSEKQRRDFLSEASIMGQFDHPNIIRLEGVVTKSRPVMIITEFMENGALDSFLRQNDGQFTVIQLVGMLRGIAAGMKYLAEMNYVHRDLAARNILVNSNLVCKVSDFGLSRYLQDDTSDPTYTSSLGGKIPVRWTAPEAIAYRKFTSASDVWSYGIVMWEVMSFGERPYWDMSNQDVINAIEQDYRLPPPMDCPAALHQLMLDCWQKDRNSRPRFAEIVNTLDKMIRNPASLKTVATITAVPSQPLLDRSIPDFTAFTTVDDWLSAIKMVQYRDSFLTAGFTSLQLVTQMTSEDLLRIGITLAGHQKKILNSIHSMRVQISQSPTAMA
# ASSAY OVERVIEW: phosphorylation enrichment, bacterial display (enrichment ratio); higher = better substrate or ligand; peptides without Tyr show the background
MEASUREMENT NAME: phosphorylation enrichment
Answer with the value's number alone.

Here's what some known entries look like.
| SEQUENCE DATA | phosphorylation enrichment |
| --- | --- |
| ADEDIYGVLPA [LYNtide_2014] | 0.705 |
| SGKSEYLLPVA [MYLK_Y611_R607G] | 0.486 |
| IFGASYVPFAA [RBM47_Y541_YF] | 0.432 |

Look up and report measured phosphorylation enrichment (EPHB1 (UniProt P54762)) for the following sequence: ETVHRYVELLD [AP1S3_Y87_I83T]
0.538

Please report the measured phosphorylation enrichment for VMAALYGRLYE [BTD_Y536_T532M] tested on EPHB1 (UniProt P54762).
0.961

Report phosphorylation enrichment on EPHB1 (UniProt P54762) for this entry: EERNTYVNTTL [TEK_Y1102_K1100N]
0.955

Provide measured phosphorylation enrichment on EPHB1 (UniProt P54762) for "WANPEYTGGFK" please.
0.549
